assay: Probe fluorescence ratio response to linolenic acid relative to ADIFAB2; format: binding; details: response relative to ADIFAB2
# key: entry, value: DR/DR LNA
Write no unit; give the number alone.

molecule	measurement
47R3, L72A (protein, listed as Rattus norvegicus, PEPTIDE (1)...(131) wild-type rat intestinal fatty acid binding protein) AFDGTWKVDRNENYEKFMEKMGINVVKRKLGAHDNLKLTITQEGNKRTVKESSNFRNIDVVFELGVDFAYSAADGTELTGTWTMEGNKLVGKFKRVDNGKELIAVREISGNELIQTYTYEGVEAKRIFKKE	0.61

Next, consider the following molecule.
Prompt: Give its DR/DR LNA value. Item: 11C, 72A (protein, listed as Rattus norvegicus, PEPTIDE (1)...(131) wild-type rat intestinal fatty acid binding protein) AFDGTWKVDRCENYEKFMEKMGINVVKRKLGAHDNLKLTITQEGNKFTVKESSNFRNIDVVFELGVDFAYSAADGTELTGTWTMEGNKLVGKFKRVDNGKELIAVREISGNELIQTYTYEGVEAKRIFKKE
Response: 0.64
